Each recorded value in this set is attributed to patent US20230365662A1.

Biological target: HRgpA-6H (Porphyromonas gingivalis) (UniProt P28784)
Assay: ELISA, Fab FASEBA supernatant on coated HRgpA-6H
Parameter Measured: Ratio OD(Variant)/OD(WT)

{"Binder": "parental mouse (KB001) Fab FASEBA, VL variant T100I (Fab, V domains shown) VH: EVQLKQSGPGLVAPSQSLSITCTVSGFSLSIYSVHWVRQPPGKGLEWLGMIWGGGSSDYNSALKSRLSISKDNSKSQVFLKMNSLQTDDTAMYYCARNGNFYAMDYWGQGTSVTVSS VL: QIVLTQSPAIMSASLGERVTMTCTASSSVSSSFLHWYQQKPGSSPQLWIYSTSNLASGVPARFSGSGSGTSYSLTISSMEAEDAATYYCHQYHHSPYIYIFGGGTKLEIK", "Parameter Measured": "Ratio OD(Variant)/OD(WT)", "Result": "0.942 ratio to WT"}
{"Binder": "parental mouse (KB001) Fab FASEBA, VL variant S57I (Fab, V domains shown) VH: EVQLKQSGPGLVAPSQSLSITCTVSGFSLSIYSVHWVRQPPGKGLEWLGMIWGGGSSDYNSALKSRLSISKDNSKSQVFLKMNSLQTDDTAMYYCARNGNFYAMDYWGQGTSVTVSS VL: QIVLTQSPAIMSASLGERVTMTCTASSSVSSSFLHWYQQKPGSSPQLWIYSTSNLAIGVPARFSGSGSGTSYSLTISSMEAEDAATYYCHQYHHSPYIYTFGGGTKLEIK", "Parameter Measured": "Ratio OD(Variant)/OD(WT)", "Result": "0.97 ratio to WT"}
{"Binder": "parental mouse (KB001) Fab FASEBA, VL variant S57K (Fab, V domains shown) VH: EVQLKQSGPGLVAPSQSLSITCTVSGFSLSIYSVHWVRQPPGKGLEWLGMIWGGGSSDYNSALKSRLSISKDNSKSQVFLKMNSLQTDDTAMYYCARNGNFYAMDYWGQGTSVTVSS VL: QIVLTQSPAIMSASLGERVTMTCTASSSVSSSFLHWYQQKPGSSPQLWIYSTSNLAKGVPARFSGSGSGTSYSLTISSMEAEDAATYYCHQYHHSPYIYTFGGGTKLEIK", "Parameter Measured": "Ratio OD(Variant)/OD(WT)", "Result": "0.873 ratio to WT"}
